Target: PPARγ (Mus musculus)
Construct: expressed in transfected cells; host or cells: 293T cells
Sequence (P37238 whole entry): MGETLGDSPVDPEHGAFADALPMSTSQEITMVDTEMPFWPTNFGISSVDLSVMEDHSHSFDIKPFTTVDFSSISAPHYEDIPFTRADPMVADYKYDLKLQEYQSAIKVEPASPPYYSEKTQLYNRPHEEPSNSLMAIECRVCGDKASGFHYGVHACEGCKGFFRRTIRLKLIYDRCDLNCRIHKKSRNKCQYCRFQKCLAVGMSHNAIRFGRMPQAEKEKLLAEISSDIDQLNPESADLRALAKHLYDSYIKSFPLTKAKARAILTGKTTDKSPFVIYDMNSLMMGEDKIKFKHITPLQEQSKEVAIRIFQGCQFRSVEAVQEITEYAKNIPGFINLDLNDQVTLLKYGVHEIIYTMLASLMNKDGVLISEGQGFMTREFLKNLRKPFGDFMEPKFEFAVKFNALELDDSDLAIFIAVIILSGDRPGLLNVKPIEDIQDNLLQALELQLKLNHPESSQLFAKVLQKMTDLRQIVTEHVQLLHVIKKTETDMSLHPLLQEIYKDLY
Assay: PPAR reporter assay in 293T cells, PPARγ (agonist GW7845)
Format: cell-based
Details: HEK-293T; 25 μM compound; 1 μM agonist GW7845; 293T cells; read-out: Reporter assay (% inhibition), γ
Measured Property: inhibition at 25 µM (%)

Smiles String: O=C(NN(C(=O)c1ccc(Cl)cc1)S(=O)(=O)c1ccc(C(F)(F)F)cc1)c1ccc(Cl)cc1
inhibition at 25 µM (%): 32

Smiles String: CC(C)(C)c1ccc(S(=O)(=O)N(C(=O)c2ccc(Cl)cc2)N(C(=O)c2ccc(Cl)cc2)C(=O)c2ccc(Cl)cc2)cc1
inhibition at 25 µM (%): 75

Smiles String: CC(C)(C)c1ccc(S(=O)(=O)N(NC(=O)c2ccc(Cl)nc2)C(=O)c2ccc(Cl)nc2)cc1
inhibition at 25 µM (%): 37

[I] CC(C)(C)c1ccc(S(=O)(=O)N(NC(=O)c2ccc(O)cc2)C(=O)c2ccc(O)cc2)cc1
[II] CC(C)(C)c1ccc(C(=O)N(N)S(=O)(=O)c2ccc(C(C)(C)C)cc2)cc1
[III] CC(C)(C)c1ccc(C(=O)N(NC(=O)c2ccc(Cl)cc2)S(=O)(=O)c2ccc(C(C)(C)C)cc2)cc1
Req: Please put the entries in order of rising inhibition at 25 µM. # output: labels, in the requested order
Resp: I, II, III

These measurements were taken from patent US20130158063A1.
